The values you see were collected from patent US20250313605A1.

- subject of test: T1, human GIP receptor (human), P48546
- T1 chain: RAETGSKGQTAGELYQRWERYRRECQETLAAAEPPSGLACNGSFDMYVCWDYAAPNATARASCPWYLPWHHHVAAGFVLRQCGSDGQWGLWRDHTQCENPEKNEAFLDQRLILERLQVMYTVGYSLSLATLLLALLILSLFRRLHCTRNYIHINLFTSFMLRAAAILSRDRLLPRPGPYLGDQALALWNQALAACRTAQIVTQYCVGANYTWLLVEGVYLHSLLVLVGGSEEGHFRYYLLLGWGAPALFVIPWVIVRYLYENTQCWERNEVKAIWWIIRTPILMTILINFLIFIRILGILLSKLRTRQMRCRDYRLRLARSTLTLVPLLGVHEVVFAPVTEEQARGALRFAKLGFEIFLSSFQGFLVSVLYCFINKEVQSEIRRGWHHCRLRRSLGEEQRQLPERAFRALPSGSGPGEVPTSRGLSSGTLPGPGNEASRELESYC
- procedure text: radioligand competition SPA, HEK293 membranes
*1 amine or outer side, *2 acyl side, *3 side chain or, on linkers, in order; H or OH if unused. Where no end group is shown, it is not given here. Side-chain parts run from the residue outwards. [ ]: non-standard residue; d: D form. The star is where a group is joined. C20 diacid = O=C(O)CCCCCCCCCCCCCCCCCCC(=O)*; γGlu = O=C(O)[C@H](CCC(=O)[*:2])N[*:1]; αMeL = CC(C)C[C@](C)(N)C(=O)O; AEEA = NCCOCCOCC(=O)O; Aib = CC(C)(N)C(=O)O
test readout: Ki
Report as: number unit

Some binders with recorded Ki:
Which Ki is reported for this binder? Y[Aib]QGTFTSDYSILLDKK([AEEA-γGlu-C20 diacid])AQ[Aib]AFIEYLLEGGPSSGAPPPS-NH2 [Example 18]
0.0835 nM

# input binder: Y[Aib]QGTFTSDYSILLDKK([AEEA-AEEA-γGlu-C20 diacid])AQ[Aib]AFIEYLLEGGPSSGAPPPS-NH2 [Example 16] ; wanted: its Ki
0.106 nM

Reported Ki, binder Y[Aib]QGTFTSDYSI[αMeL]LDKK([AEEA-AEEA-γGlu-C20 diacid])AQHAFIEYLLEGGPSSGAPPPS-NH2 [Example 7] : ____
0.11 nM

Please turn your attention to the following entry.
I have this binder here, Y[Aib]QGTFTSDYSI[αMeL]LDKK([AEEA-γGlu-C20 diacid])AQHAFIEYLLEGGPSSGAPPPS-NH2 [Example 10] , and I need its recorded Ki.
0.118 nM
